- Measurement Description: Cmax in Sprague-Dawley rat at 1 mg/kg, iv
- Format: ADME, organism-based
- Design: dose 1 mg/kg, route intravenous
- Settings: in vivo
Observation Type: Cmax (ng/mL)
Give bare numbers, in ng/mL.

Input: Report Cmax, nothing else, for this compound: Cc1c2c(=O)n(-c3ccccc3)[nH]c2cc(=O)n1Cc1cccnc1
Output: 271

---

- Measurement Target: NADPH oxidase 4 (Homo sapiens)
- Sequence (Q9NPH5 whole entry): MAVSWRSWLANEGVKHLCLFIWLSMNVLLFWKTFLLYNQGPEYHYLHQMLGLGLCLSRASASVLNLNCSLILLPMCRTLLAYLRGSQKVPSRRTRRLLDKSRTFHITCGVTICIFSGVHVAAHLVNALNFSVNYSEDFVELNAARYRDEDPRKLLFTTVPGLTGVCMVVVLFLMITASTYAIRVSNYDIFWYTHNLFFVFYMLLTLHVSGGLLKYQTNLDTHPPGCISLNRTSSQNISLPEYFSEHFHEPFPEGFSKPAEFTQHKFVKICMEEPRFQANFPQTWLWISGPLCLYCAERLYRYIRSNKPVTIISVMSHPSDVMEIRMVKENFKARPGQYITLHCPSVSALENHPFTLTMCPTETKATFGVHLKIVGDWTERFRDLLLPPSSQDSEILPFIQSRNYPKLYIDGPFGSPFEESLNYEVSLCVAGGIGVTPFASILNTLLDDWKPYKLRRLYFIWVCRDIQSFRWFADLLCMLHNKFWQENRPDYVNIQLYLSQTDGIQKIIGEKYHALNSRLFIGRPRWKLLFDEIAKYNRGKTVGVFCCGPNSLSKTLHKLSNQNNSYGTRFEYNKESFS
- Measurement Description: Inhibition of human NOX4 overexpressed in T-REx-293 cell membrane assessed as ROS production by cell free assay in presence of NADPH
- Settings: in the assay text read “T-REx-293 cell membrane” for “human PMN cell membrane”
Provide the reported pKi of each item.
One number for each entry, as −log10 of the molar value.

Known results for compounds:
Cc1c2c(=O)n(-c3nc4ccccc4s3)[nH]c2cc(=O)n1CCc1c[nH]cn1 :: 5.33
CN(Cc1c2c(=O)n(-c3ccccc3Cl)[nH]c2cc(=O)n1CCc1ccccn1)c1ccccc1 :: 6.76
Cn1c(COCc2ccccc2Cl)c2c(=O)n(-c3ccccc3Cl)[nH]c2cc1=O :: 7.09
Cc1c2c(=O)n(-c3ccccc3)[nH]c2cc(=O)n1Cc1ccco1 :: 5.02

List the reported pKi of each compound below.
1. Cc1c2c(=O)n(-c3nc4ccccc4s3)[nH]c2cc(=O)n1CCc1c[nH]c2ccccc12
2. Cc1c2c(=O)n(-c3nc4ccccc4s3)[nH]c2cc(=O)n1Cc1ccc(C(=O)O)cc1
3. Cc1c2c(=O)n(-c3ccccc3F)[nH]c2cc(=O)n1C
4. Cc1c2c(=O)n(-c3ccnc4cc(Cl)ccc34)[nH]c2cc(=O)n1Cc1ccccn1
5. O=c1c2c(CN3CCCC3)n(CCc3ccccn3)c(=O)cc2[nH]n1-c1ccc(F)cc1Cl

Output:
1. 5.73
2. 5.37
3. 6.51
4. 6.34
5. 6.94

---

- Measurement Description: Cmax in Sprague-Dawley rat at 10 mg/kg, po
- Type: ADME, organism-based
- Set-up: dose 10 mg/kg, route oral
- Settings: in vivo
I'd appreciate it if you could supply Cmax values for the items below.
One number for each entry, in ng/mL.

Answered cases to consult:
COCCn1c(COc2ccc(F)cc2)c2c(=O)n(CCN3CCOCC3)[nH]c2cc1=O :: 132
Cc1c2c(=O)n(-c3ccccc3Cl)[nH]c2cc(=O)n1Cc1ccccn1 :: 3150
Cc1c2c(=O)n(-c3ccccc3)[nH]c2cc(=O)n1Cc1cccnc1 :: 575
O=c1c2c(CN3CCCC3)n(CCc3ccccn3)c(=O)cc2[nH]n1-c1ccc(F)cc1Cl :: 2830
Cn1c(COc2ccc(F)cc2)c2c(=O)n(-c3ccccc3Cl)[nH]c2cc1=O :: 558

# input for lookup
Input: Please report the measured Cmax for O=c1c2c(COCc3ccccc3)n(Cc3cnccn3)c(=O)cc2[nH]n1-c1ccccc1Cl
Output: 6080
